# Tested on: Ilyonectria destructans
# assay: N-Acylation of compound was determined after 22 hr incubation at 250 mg/mL concentration using Cylindrocarpon radicicola resting cells and residual amine was evaluated
Listing: Residual amine (ee) of selected compounds
Provide the reading as a plain figure in %.

[ask] Tell me the measured Residual amine (ee) of NC(Cc1ccccc1)c1ccccc1 (stereo not given) , please.
[reply] 80

[ask] How about CC(CN)c1ccccc1 (stereo not given) ?
[reply] 0

[ask] How about NC(c1ccccc1)c1ccc(Cl)cc1 (stereo not given) ?
[reply] 0

[ask] How about NC1CCc2ccccc21 (stereo not given) ?
[reply] 0

[ask] How about CC(N)COc1ccccc1 (stereo not given) ?
[reply] 95
